Reference source for all entries: PubChem BioAssay (NCI)

Tested on: 786-0 renal
RUN_DESCRIPTION: NCI tumour cell line growth inhibition, 48 h
So basically: TGI at 30 µM or higher? That is criterion met. Lower than 30 µM? That is criterion not met.

{"COMPOUND": "O=c1oc(-c2ccccc2)c(-c2ccccc2)n1-c1ccc(Br)cc1", "CLASS_LABEL": "criterion met"}
{"COMPOUND": "CS/C(C)=N/OC(=O)NCCCCNc1ccc(N=[N+]=[N-])cc1", "CLASS_LABEL": "criterion met"}

Pending compound:
Please check the record CCCCCC[C@H]1C(=O)O[C@H](C)[C@H](NC(=O)c2cccc(NC=O)c2OC)C(=O)O[C@@H](C)[C@@H]1OC(=O)CC(C)C (tested in a mixture with another compound) and state if its TGI is at or above 30 µM.
criterion met

----------
Test system: RPMI-8226 leukemia
RUN_DESCRIPTION: NCI tumour cell line growth inhibition, 48 h; in the data active = GI50 below about 0.43 µM; inactive = the rest
Use one of these outcomes when replying: Y = active, N = inactive

Sample answers from the record:
{"COMPOUND": "Cc1ccc2c(c1)C(=O)c1c-2n(CCCBr)c(=O)c2cc([N+](=O)[O-])ccc12", "CLASS_LABEL": "N"}
{"COMPOUND": "O=C(CCCSc1nc(-c2ccccc2)cc(-c2ccc(Cl)cc2)n1)NO", "CLASS_LABEL": "N"}
{"COMPOUND": "CCOc1ccccc1/C=N\\N=C(\\N)N/N=C/c1ccccc1OCC", "CLASS_LABEL": "N"}
{"COMPOUND": "Cn1cc(-c2ccc(-c3cn(C)c4ccc(Cl)cc34)s2)c2cc(Cl)ccc21", "CLASS_LABEL": "N"}

Would you mind telling me which call this test gave COc1cc(C2C3=C(COC3=O)Nc3cc4c(cc32)CCC4)cc2c1OCO2 (centres undefined) ?
Y

Would you mind telling me which call this test gave COc1cc(C2CC(c3ccc(N(C)C)cc3)=NN2C(C)=O)cc(OC)c1OC (centres undefined) ?
N

Would you mind telling me which call this test gave CCCCNC(=O)NS(=O)(=O)c1ccc(N2N=C(c3cc(C)ccc3C)CC2c2cc(OC)c(OC)c(OC)c2)cc1 (centres undefined) ?
N

Would you mind telling me which call this test gave CCCCN(CCCC)c1ccc(C(=NC(C)CCCN(CC)CC)c2ccc(N(C)C)cc2)cc1 (centres undefined) ?
N

Would you mind telling me which call this test gave FC(F)(F)c1ccc(-c2cnc(Cl)nc2NCc2cc(C(F)(F)F)cc(C(F)(F)F)c2)cc1 ?
N

----------
Measured TGI values are reported for all entries that follow.
System: EKVX NSCLC
RUN_DESCRIPTION: NCI tumour cell line growth inhibition, 48 h
Numbers only here, please. The scale is µM.

Completed entries (count: 4):
{"SMILES_INPUT": "COc1ccc(C(=O)N(C(=S)OCCOc2ccccc2)c2ccccc2)cc1", "UNIT_ABBREVIATION": "µM", "TGI": 96.6}
{"SMILES_INPUT": "COc1ccc(C(=O)/C=C/c2cccnc2)cc1OC", "UNIT_ABBREVIATION": "µM", "TGI": 28.7}
{"SMILES_INPUT": "O=C(CCCSc1nc(-c2ccccc2)cc(-c2ccc(Cl)cc2)n1)NO", "UNIT_ABBREVIATION": "µM", "TGI": 11.5}
{"SMILES_INPUT": "O=C1/C(=C/c2ccccc2)CCC/C1=C\\c1ccc(O)c(CN2CCCCC2)c1", "UNIT_ABBREVIATION": "µM", "TGI": 18.1}

// next item, TGI requested
Entry Clc1nc(NCCc2ccccc2)c2ncn(-c3ccccc3)c2n1 ; assay system EKVX NSCLC; TGI recorded at 68.3
